molecular target: BCRP (ABCG2) (Homo sapiens, UniProt Q9UNQ0); assay: TP_TRANSPORTER: inhibition of E1S uptake by Estrone at a concentration of 30uM in membrane vesicle from BCRP-expressing K562 cells; type: functional, cell membranes; set-up: scale not given: the % may be the effect or the level left; settings: membrane vesicles from BCRP-expressing K562 cells, probe E1S, read-out: Activity
Sequence (Q9UNQ0 whole entry): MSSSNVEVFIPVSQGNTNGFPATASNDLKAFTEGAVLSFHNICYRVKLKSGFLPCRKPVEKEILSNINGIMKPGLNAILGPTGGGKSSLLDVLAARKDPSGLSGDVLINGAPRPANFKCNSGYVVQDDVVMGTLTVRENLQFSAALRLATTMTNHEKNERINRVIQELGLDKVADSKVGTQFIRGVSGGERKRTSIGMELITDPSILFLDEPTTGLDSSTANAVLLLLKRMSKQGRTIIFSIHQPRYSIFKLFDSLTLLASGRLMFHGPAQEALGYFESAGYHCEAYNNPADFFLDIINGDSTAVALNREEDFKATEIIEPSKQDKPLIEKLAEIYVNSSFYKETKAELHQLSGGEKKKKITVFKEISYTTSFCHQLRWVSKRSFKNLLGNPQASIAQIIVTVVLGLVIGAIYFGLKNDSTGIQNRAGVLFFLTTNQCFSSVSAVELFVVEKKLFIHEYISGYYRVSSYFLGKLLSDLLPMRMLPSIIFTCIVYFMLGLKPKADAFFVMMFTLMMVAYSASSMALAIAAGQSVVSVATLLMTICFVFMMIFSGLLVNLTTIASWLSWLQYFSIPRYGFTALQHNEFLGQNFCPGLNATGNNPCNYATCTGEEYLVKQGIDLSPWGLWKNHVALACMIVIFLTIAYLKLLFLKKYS
quantity: activity at 30 µM (%)
Answers are plain numbers, in %.

The recorded activity at 30 µM for entry C[C@]12CC[C@@H]3c4ccc(O)cc4CC[C@H]3[C@@H]1CCC2=O equals 70

====

biological target: BCRP (ABCG2) (Homo sapiens); assay: TP_TRANSPORTER: inhibition of E1S uptake by 17beta-estradiol at a concentration of 30uM in membrane vesicle from BCRP-expressing K562 cells; type: functional, cell membranes; set-up: scale not given: the % may be the effect or the level left; settings: membrane vesicles from BCRP-expressing K562 cells, probe E1S, read-out: Activity
quantity: activity at 30 µM (%)
One number for each entry, in %.

The recorded activity at 30 µM for entry C[C@]12CC[C@@H]3c4ccc(O)cc4CC[C@H]3[C@@H]1CC[C@@H]2O [ESTRADIOL] equals 50

====

target: BCRP (ABCG2) (Homo sapiens, UniProt Q9UNQ0); assay: TP_TRANSPORTER: inhibition of E1S uptake by Taurolithocholate-3-sulfate at a concentration of 30uM in membrane vesicle from BCRP-expressing K562 cells; type: functional, cell membranes; parameters: scale not given: the % may be the effect or the level left; conditions: membrane vesicles from BCRP-expressing K562 cells, probe E1S, read-out: Activity
quantity: activity at 30 µM
Please give the number followed by its unit.

The recorded activity at 30 µM for entry C[C@H](CCC(=O)NCCS(=O)(=O)O)C1CC[C@H]2[C@@H]3CC[C@@H]4C[C@H](OS(=O)(=O)O)CC[C@]4(C)[C@H]3CC[C@]12C (stereo partly specified) equals 30%

====

target: BCRP (ABCG2) (Homo sapiens, UniProt Q9UNQ0); test: TP_TRANSPORTER: inhibition of E1S uptake by Dehydroepiandrosterone-3-sulfate at a concentration of 30uM in membrane vesicle from BCRP-expressing K562 cells; assay type: functional, cell membranes; design: scale not given: the % may be the effect or the level left; conditions: membrane vesicles from BCRP-expressing K562 cells, probe E1S, read-out: Activity
quantity: activity at 30 µM (%)
Numbers only, in %.

The recorded activity at 30 µM for entry C[C@]12CC[C@H](OS(=O)(=O)O)CC1=CC[C@@H]1[C@@H]2CC[C@]2(C)C(=O)CC[C@@H]12 equals 50

====

molecular target: BCRP (ABCG2) (Homo sapiens, UniProt Q9UNQ0); assay: TP_TRANSPORTER: inhibition of E1S uptake by Taurolithocholate at a concentration of 30uM in membrane vesicle from BCRP-expressing K562 cells; format: functional, cell membranes; set-up: scale not given: the % may be the effect or the level left; settings: membrane vesicles from BCRP-expressing K562 cells, probe E1S, read-out: Activity
quantity: activity at 30 µM

The recorded activity at 30 µM for entry C[C@H](CCC(=O)NCCS(=O)(=O)O)[C@H]1CC[C@H]2[C@@H]3CC[C@@H]4C[C@H](O)CC[C@]4(C)[C@H]3CC[C@]12C equals 20%
